Biological target: Aldehyde dehydrogenase 1A1 (Homo sapiens)
Assay: qHTS Assay for Inhibitors of Aldehyde Dehydrogenase 1 (ALDH1A1)
Details: Purified ALDH1A1, NADH fluorescence, propionaldehyde substrate; series mostly up to 75.3 µM
In all, about 220,000 compounds went through this assay and about 16,000 (7.3%) were called active. Not shown: some 25% with an inconclusive outcome. Calls come from the whole dose curve; as a rule, active = well fitted inhibition curve with a large enough effect (not every such curve was filed as active); inconclusive = small, poorly fitted or top-dose-only effect, or another doubt; inactive = no such curve, though single readings can be large or run the other way. This excerpt belongs to a sample that is enriched for actives.
Select the matching outcome among label 1 for active, label 0 for inactive

# example entries with known answers
Request: Assay result, entry C=CCn1c(-c2ccccc2OCC)n[nH]c1=S — outcome?
Response: label 0

Request: Next compound: COc1cc(-c2nnn(CC(=O)NCc3ccccc3)n2)cc(OC)c1OC
Response: label 0

Request: Next compound: COc1cccc(-n2c(Cc3cc(=O)[nH]c(=O)[nH]3)nnc2SCC(=O)Nc2ccccc2)c1
Response: label 0

Request: Next compound: Cc1ccc2nc(-c3ccncc3)cc(C(=O)Nc3ccc4c(c3)OCCO4)c2c1
Response: label 0

Request: Next compound: COc1ccccc1NC(=O)CSc1nnc(Cn2nnc(-c3ccccc3)n2)n1-c1ccccc1
Response: label 1

Request: Next compound: Cn1c(=O)c2cc(S(=O)(=O)NCCC(=O)Nc3ccc(F)cc3F)ccc2n(C)c1=O
Response: label 0

Further cases:
Request: Assay result, entry C=CCn1c(CCc2ccc(OC(C)C)cc2)n[nH]c1=S — outcome?
Response: label 0

Request: Next compound: COc1ccc(N2C(=O)C(O)C2c2ccc(C)cc2)cc1 (stereo unspecified)
Response: label 0

Request: Next compound: C=CCn1c(-c2ccc3[nH]c(C)c(C)c3c2)n[nH]c1=S
Response: label 1

Request: Next compound: O=C(COC(=O)CNC(=O)c1ccccc1F)NCC(F)(F)F
Response: label 0

Request: Next compound: COc1ccccc1NC(=O)CSc1nnc(Cc2cccn2C)n1-c1ccc(F)cc1
Response: label 1

====

Biological target: Aldehyde dehydrogenase 1A1 (Homo sapiens) (UniProt P00352)
Sequence (P00352 whole entry, looked up): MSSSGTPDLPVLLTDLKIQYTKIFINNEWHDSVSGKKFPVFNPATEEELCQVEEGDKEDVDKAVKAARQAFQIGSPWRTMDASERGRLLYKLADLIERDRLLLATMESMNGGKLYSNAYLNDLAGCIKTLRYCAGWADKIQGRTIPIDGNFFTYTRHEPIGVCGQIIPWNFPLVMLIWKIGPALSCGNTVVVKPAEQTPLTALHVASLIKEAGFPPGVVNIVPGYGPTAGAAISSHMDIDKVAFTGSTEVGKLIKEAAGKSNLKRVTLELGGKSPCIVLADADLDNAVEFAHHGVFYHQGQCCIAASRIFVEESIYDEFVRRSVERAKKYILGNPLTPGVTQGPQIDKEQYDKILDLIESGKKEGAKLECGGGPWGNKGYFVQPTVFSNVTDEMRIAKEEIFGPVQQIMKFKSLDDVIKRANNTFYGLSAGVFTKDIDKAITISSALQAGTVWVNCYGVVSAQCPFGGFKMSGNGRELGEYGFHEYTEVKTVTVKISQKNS
Assay: qHTS Assay for Inhibitors of Aldehyde Dehydrogenase 1 (ALDH1A1); note: potency is the fitted concentration of half-maximal effect
Settings: Purified ALDH1A1, NADH fluorescence, propionaldehyde substrate; series mostly up to 75.3 µM
Out of some 220,000 compounds screened, about 16,000 (7.3%) were called active. About 25% were inconclusive and are not listed. What follows is part of a selection rich in actives, with near analogues and random picks from the rest.
Endpoint: Potency

Request: Tell me reported Potency for O=C(CCCn1c(=O)c2sccc2n(CC(=O)NCC2CCCO2)c1=O)NCc1ccco1 (stereo unspecified) , tested with Aldehyde dehydrogenase 1A1 (Homo sapiens) (UniProt P00352).
Response: inactive

Request: Next compound: Cc1cccc(C(=O)Nc2ccccc2C(=O)NCc2cccnc2)c1
Response: inactive

Request: Next compound: COC(=O)/C(=C1\Oc2ccc(C(C)(C)C)cc2S1)C(F)(F)F
Response: inactive

Request: Next compound: CCn1c(SCc2cc(=O)n3ccsc3n2)nc2ccccc21
Response: inactive

Continue with the compound presented below.
Request: Tell me reported Potency for O=C(CSc1ccc2nnc(-c3ccccc3)n2n1)N1CCCc2ccccc21 , tested with Aldehyde dehydrogenase 1A1 (Homo sapiens) (UniProt P00352).
Response: inactive

====

Target: Aldehyde dehydrogenase 1A1 (Homo sapiens) (UniProt P00352)
Assay: qHTS Assay for Inhibitors of Aldehyde Dehydrogenase 1 (ALDH1A1)
Conditions: Purified ALDH1A1, NADH fluorescence, propionaldehyde substrate; series mostly up to 75.3 µM
In all, about 220,000 compounds went through this assay and about 16,000 (7.3%) were called active. Not shown: some 25% with an inconclusive outcome. The call rests on the fitted dose curve; in most records, active means well fitted inhibition curve with a large enough effect (not every such curve was filed as active); inconclusive means small, poorly fitted or top-dose-only effect, or another doubt; inactive means no such curve, though single readings can be large or run the other way. This is one part of a sample in which actives are shown more often than they occur.
Select the matching outcome among active, inactive

# example entries with known answers
Request: Assay result, entry C=CCN(CC=C)S(=O)(=O)c1ccc(C(=O)Nc2nc3c(s2)CCc2ccccc2-3)cc1 — outcome?
Response: inactive

Request: Next molecule: CCc1ccnc(NS(=O)(=O)c2ccc3c(c2)OCCO3)c1
Response: inactive

Request: Next molecule: O=C(CSc1ccc(-c2cccs2)nn1)Nc1ccccc1F
Response: inactive

Request: Next molecule: COc1cc(C(=O)NC(=S)NCc2ccco2)cc(OC)c1OC
Response: active

Request: Next molecule: O=C1N=C2SCCN2/C1=C\c1c(Cl)cccc1Cl
Response: inactive

With those in mind, consider the next molecule.
Request: Assay result, entry O=C(/C=C/c1c(Cl)cccc1Cl)NCc1ccccc1 — outcome?
Response: inactive

====

Molecular target: Aldehyde dehydrogenase 1A1 (Homo sapiens) (UniProt P00352)
Assay: qHTS Assay for Inhibitors of Aldehyde Dehydrogenase 1 (ALDH1A1); note: potency is the fitted concentration of half-maximal effect
Details: Purified ALDH1A1, NADH fluorescence, propionaldehyde substrate; series mostly up to 75.3 µM
The whole screen tested about 220,000 compounds, of which about 16,000 (7.3%) were called active. Roughly 25% stayed inconclusive and do not appear here. This excerpt belongs to a sample that is enriched for actives.
Endpoint: Potency

Request: Tell me reported Potency for COc1cccc(CNC(=O)Cc2csc(Nc3nc(=S)[nH]c4ccccc34)n2)c1 , tested with Aldehyde dehydrogenase 1A1 (Homo sapiens) (UniProt P00352).
Response: inactive

Request: Next compound: Cc1cc(C(=O)OC(C)C(=O)Nc2cccc(S(=O)(=O)N3CCOCC3)c2)c(C)o1 (stereo unspecified)
Response: inactive

Request: Next compound: O=C(Nc1ccnc(-c2ccncc2)n1)c1cccs1
Response: inactive

Request: Next compound: Cc1cc(C)nc(NC(=O)C(C)N2C(=O)c3ccccc3C2=O)n1 (stereo unspecified)
Response: inactive

Request: Next compound: COC(=O)Nc1sc2nc(C)cc(C)c2c1-n1cccc1
Response: inactive

Continue with the compound presented below.
Request: Tell me reported Potency for Cc1cc(C)c2c(-n3cccc3)c(C(=O)NNS(=O)(=O)c3ccc(F)cc3)sc2n1 , tested with Aldehyde dehydrogenase 1A1 (Homo sapiens) (UniProt P00352).
Response: 2240 nM (active)

====

Molecular target: Aldehyde dehydrogenase 1A1 (Homo sapiens) (UniProt P00352)
Assay: qHTS Assay for Inhibitors of Aldehyde Dehydrogenase 1 (ALDH1A1)
Details: Purified ALDH1A1, NADH fluorescence, propionaldehyde substrate; series mostly up to 75.3 µM
In all, about 220,000 compounds went through this assay and about 16,000 (7.3%) were called active. Another 25% or so got no clear call; they are omitted. The call rests on the fitted dose curve; in most records, active means well fitted inhibition curve with a large enough effect (not every such curve was filed as active); inconclusive means small, poorly fitted or top-dose-only effect, or another doubt; inactive means no such curve, though single readings can be large or run the other way. The sample holds actives, similar compounds and a random draw of the others, so the mix is not that of the screen.
Select the matching outcome among YES for active, NO for inactive

# example entries with known answers
Request: Assay result, entry O=C1C=CC(=O)N1c1ccc(N2CCCCC2)cc1 — outcome?
Response: YES

Request: Next compound: OC1CSc2nc3ccccc3n2C1 (stereo not drawn)
Response: NO

Request: Next compound: COC(=O)C1=C(C)N(c2ccc(C)cc2)/C(=C/c2ccc(O)cc2)C1=O
Response: NO

Request: Next compound: CS(=O)(=O)c1ccc2nc(NC(=O)C3C4C=CC(C4)C3C(=O)O)sc2c1 (stereo not drawn)
Response: YES

Request: Next compound: COc1cc(C)c(Cl)cc1S(=O)(=O)n1ccnc1
Response: NO

Request: Next compound: Oc1c(C=Nc2cccc3nsnc23)ccc2ccccc12
Response: YES

Further cases:
Request: Assay result, entry CCOC(=O)c1c(C)[nH]c2c1-c1ccccc1C(=O)C2=O — outcome?
Response: NO

Request: Next compound: CCOc1cc(/C=N/O)cc(Br)c1OC
Response: NO

Request: Next compound: COc1ccc(NC(=O)c2cc3nc(-c4ccccc4)cc(C)n3n2)cc1OC
Response: NO

====

Target: Aldehyde dehydrogenase 1A1 (Homo sapiens)
Test: qHTS Assay for Inhibitors of Aldehyde Dehydrogenase 1 (ALDH1A1)
Conditions: Purified ALDH1A1, NADH fluorescence, propionaldehyde substrate; series mostly up to 75.3 µM
Out of some 220,000 compounds screened, about 16,000 (7.3%) were called active. Roughly 25% stayed inconclusive and do not appear here. The call rests on the fitted dose curve; in most records, active means well fitted inhibition curve with a large enough effect (not every such curve was filed as active); inconclusive means small, poorly fitted or top-dose-only effect, or another doubt; inactive means no such curve, though single readings can be large or run the other way. Many of the other results were omitted from the sample, so actives are more common in it than they were.
Select the matching outcome among T = active, F = inactive

Request: Assay result, entry CCc1cccc(OC2OC(CO)C(O)C(O)C2NC(C)=O)c1 (stereo not given) — outcome?
Response: F

Further cases:
Request: Assay result, entry CCCCCCCC1=Cc2ccc(F)cc2C(C(C(=O)OC)C(=O)OC)N1C(=O)OC (stereo not given) — outcome?
Response: F

Request: Next compound: Cc1nc(S(=O)(=O)c2ccc(Br)cc2)nc2c1CCC2
Response: F

Request: Next compound: O=C1CS(=O)CN1c1ccc(Oc2ccccc2)cc1 (stereo not given)
Response: F

Request: Next compound: O=C(CCc1ccc(S(=O)(=O)N2CCOCC2)cc1)NN=C1CCCCCCC1
Response: F

Request: Next compound: CC(C)(C)OC(=O)N1CCC(NC(=O)c2[nH]cnc2C(=O)N[C@@H](Cc2ccccc2)C(=O)OCc2ccccc2)CC1
Response: F

====

Molecular target: Aldehyde dehydrogenase 1A1 (Homo sapiens)
Test: qHTS Assay for Inhibitors of Aldehyde Dehydrogenase 1 (ALDH1A1)
Conditions: Purified ALDH1A1, NADH fluorescence, propionaldehyde substrate; series mostly up to 75.3 µM
The campaign covered roughly 220,000 compounds. About 16,000 (7.3%) were called active. Another 25% or so got no clear call; they are omitted. The call rests on the fitted dose curve; in most records, active means well fitted inhibition curve with a large enough effect (not every such curve was filed as active); inconclusive means small, poorly fitted or top-dose-only effect, or another doubt; inactive means no such curve, though single readings can be large or run the other way. Many of the other results were omitted from the sample, so actives are more common in it than they were.
Select the matching outcome among active, inactive

Request: Assay result, entry COc1c(C(C)C)oc2cc3oc(=O)ccc3cc12 — outcome?
Response: inactive

Request: Next compound: CCCCC(=O)NCc1ccc(F)cc1
Response: inactive

Request: Next compound: O=C(N/N=C/c1sc(N2CCCCC2)nc1-c1cccs1)c1cccnc1
Response: active

Request: Next compound: C/C(Nc1ccc2oc(=O)ccc2c1)=C1/C(=O)CC2[C@@H]1C2(C)C (some centres undefined)
Response: active

Request: Next compound: CC(C)(C)n1nnnc1C(c1cccs1)N(Cc1cccnc1)CC1CCCO1 (centres undefined)
Response: inactive

Further cases:
Request: Assay result, entry CN(CCOc1ccccc1)Cc1nc2cc(Cl)ccc2c(=O)[nH]1 — outcome?
Response: inactive

Request: Next compound: CCC(C(=O)Nc1ccc2c(c1)OCCO2)c1ccccc1 (centres undefined)
Response: inactive

Request: Next compound: N#C/C(=C\c1ccc(-c2cccc([N+](=O)[O-])c2)o1)C(=O)NCCN1CCOCC1
Response: active

Request: Next compound: CC1CCC(NC(=O)C2c3ccccc3C(=O)N2Cc2ccc3c(c2)OCO3)CC1 (centres undefined)
Response: inactive

Request: Next compound: CCCCNC(=O)c1ccc(-n2c(=S)[nH]c3ccccc3c2=O)cc1
Response: inactive

Request: Next compound: CCN(CC(=O)Nc1ccc(Cl)c(S(=O)(=O)N(C)C)c1)Cc1nc2ccccc2c(=O)[nH]1
Response: active
